- System: OVCAR-3 ovarian
- experiment_notes: NCI-60 one-dose screen, 48 h
- measurement_conditions: 10 µM unless noted
Compounds without any hit were thinned out: in the full panel of roughly 83,000, 20% have a hit. The source made the active and inactive calls. How the source made its calls: active means growth percent below 10; inactive means the rest.
// one of Y for active, N for inactive, no free text

stdin: What classification did CC1=CN2C(=O)C3C4=C(CCCC4)SC3N=C2CN1c1c(C)cccc1C (stereo not given) end up with in this test?
stdout: N

stdin: What classification did CCN1C(=O)N(CC)C2Nn3c(s/c(=C\c4cccc([N+](=O)[O-])c4)c3=O)=NC21 (stereo not given) end up with in this test?
stdout: Y

stdin: What classification did `C=CCn1c(C)nc2cc(Nc3nc(N4CCCC4)nc4ccccc34)ccc21` end up with in this test?
stdout: N

stdin: What classification did `Cc1ccc(-c2cc(-c3ccccc3C)[nH]c(=O)c2C#N)s1` end up with in this test?
stdout: N

stdin: What classification did `COc1ccc(-c2nc3ccc4[nH]ncc4c3c3c2CCCC3)cc1B(O)O` end up with in this test?
stdout: N

stdin: What classification did `CSc1n(Cc2ccc3ccccc3c2)c(C)c[n+]1Cc1ccc2ccccc2c1` end up with in this test?
stdout: Y

stdin: What classification did `CC(=O)c1ccc(NCC(=O)Nc2ccccn2)cc1` end up with in this test?
stdout: N

stdin: What classification did `Clc1cccc(Cl)c1/C=C/c1cc(/C=C/c2c(Cl)cccc2Cl)[nH]n1` end up with in this test?
stdout: Y

stdin: What classification did `COC(=O)[C@]12CC[C@@H](C)[C@H](C)[C@@H]1C1=CC[C@@H]3[C@@]4(C)C(C=O)=C[C@@](C)(COC(=O)/C=C/c5ccccc5)[C@@H]4[C@H](O)C[C@@]3(C)[C@]1(C)CC2` end up with in this test?
stdout: Y

stdin: What classification did `c1c[nH]c(CNC2CCCCC2)c1` end up with in this test?
stdout: N

stdin: What classification did `Cc1ccc(/C=C/c2c(C(=O)/C=C/c3ccc(Cl)cc3)c(C)nc3ccccc23)cc1` end up with in this test?
stdout: Y

stdin: What classification did `COc1ccc2[nH]c(O)c(/C=c3/cc4c(c(-c5cc(OC)c(OC)c(OC)c5)n3)=Nc3ccccc3-4)c2c1` end up with in this test?
stdout: N

stdin: What classification did `c1cc2ccc3cc2cc1CNCCOCCNCc1ccc2ccc(cc2c1)CNCCOCCNC3` end up with in this test?
stdout: Y

stdin: What classification did `Cn1ccc2c(c1=O)C(=O)c1nccc3c1c-2nc1ccccc13` end up with in this test?
stdout: Y

stdin: What classification did O=C(NC(CSSCC(NC(=O)c1ccccc1)C(=O)O)C(=O)O)c1ccccc1 (stereo not given) end up with in this test?
stdout: N

stdin: What classification did `COc1ccc(-c2nc(SCCC(C)C)nc(N/N=C\c3cccc(Cl)c3)c2C#N)cc1` end up with in this test?
stdout: N

stdin: What classification did `O=C(CSc1nnc(-c2ccc(NC(=O)c3cccnc3)cc2)o1)Nc1cccc(Br)c1` end up with in this test?
stdout: N

stdin: What classification did `Cc1ccc(C(=O)CSc2nc(-c3ccc(Br)cc3)c(C#N)c(=O)[nH]2)cc1` end up with in this test?
stdout: N

stdin: What classification did `C=CCOC1=CC(=O)c2ccccc2C1=O` end up with in this test?
stdout: Y

stdin: What classification did `CCN(CC)CCn1nc2c3c(cccc3c1=O)-c1ccccc1-2` end up with in this test?
stdout: N
